Test system: receptor labeled by the radioiodinated analogue of 1 (4, [125I]-YLFQPQRF-NH2); neuropeptide FF receptor
Assay: Competitive radioligand binding against 4 ([125I]Y8F-amide)
Conditions: mixture-based positional scanning; difference from averaged radioligand displacement of whole library (0); about 80 a.u. = 10-fold change in Ki
Text: Additionally, three-dimensional (3-D) molecular models of the known smaller-size neuropeptide FF antagonists 3 and 3a were constructed and their low-energy conformations were obtained in the AMBER force-field [Weiner, et al., J. Comput. Chem. 1986, 7, […].] by molecular dynamics calculations involving simulated annealing. A semi-empirical quantum chemical method with the PM3 parameterization [Stewart, J. Comput. Chem. 1989, 10, 209-220.] was used for the final geometry optimization. […]
Peptide text beside a SMILES is read from it. * marks the point of attachment. Dansyl = CN(C)c1cccc2c(S(=O)(=O)*)cccc12
Entries annotated with measured Relative Binding Index (RBI)
Give the quantity in a.u., number only.

Solved cases (2 shown):
{"MOLECULE": "CN(C)c1cccc2c(S(=O)(=O)N[C@@H](Cc3ccccc3)C(=O)N[C@@H](CO)C(=O)N[C@@H](CCCNC(=N)N)C(N)=O)cccc12 [Dansyl-FSR-amide] (Dansyl-Phe-Ser-Arg-NH2)", "Relative Binding Index (RBI), a.u.": 30}
{"MOLECULE": "CCC(C)C(NS(=O)(=O)c1cccc2c(N(C)C)cccc12)C(=O)NC(CCCCN)C(=O)NC(CCCNC(=N)N)C(N)=O (stereo not drawn) [Dansyl-IKR-amide] (Dansyl-Ile-Lys-Arg-NH2; configuration not given here)", "Relative Binding Index (RBI), a.u.": "−13"}

### Prompt Any idea what Relative Binding Index (RBI) was measured for CN(C)c1cccc2c(S(=O)(=O)N[C@@H](CC(N)=O)C(=O)N[C@@H](CC(N)=O)C(=O)N[C@@H](CCCNC(=N)N)C(N)=O)cccc12 [Dansyl-NNR-amide] (Dansyl-Asn-Asn-Arg-NH2) ?
### Response 14

### Prompt Any idea what Relative Binding Index (RBI) was measured for CC[C@H](C)[C@H](NC(=O)[C@@H](NS(=O)(=O)c1cccc2c(N(C)C)cccc12)[C@@H](C)O)C(=O)N[C@@H](CCCNC(=N)N)C(N)=O [Dansyl-TIR-amide] (Dansyl-Thr-Ile-Arg-NH2) ?
### Response −2

### Prompt Any idea what Relative Binding Index (RBI) was measured for CN(C)c1cccc2c(S(=O)(=O)N[C@@H](Cc3c[nH]c4ccccc34)C(=O)N[C@@H](Cc3c[nH]cn3)C(=O)N[C@@H](CCCNC(=N)N)C(N)=O)cccc12 [Dansyl-WHR-amide] (Dansyl-Trp-His-Arg-NH2) ?
### Response 3

### Prompt Any idea what Relative Binding Index (RBI) was measured for CC[C@H](C)[C@H](NC(=O)[C@@H]1CCCN1S(=O)(=O)c1cccc2c(N(C)C)cccc12)C(=O)N[C@@H](CCCNC(=N)N)C(N)=O [Dansyl-PIR-amide] (Dansyl-Pro-Ile-Arg-NH2) ?
### Response −41

### Prompt Any idea what Relative Binding Index (RBI) was measured for CN(C)c1cccc2c(S(=O)(=O)N3CCC[C@H]3C(=O)N[C@@H](CO)C(=O)N[C@@H](CCCNC(=N)N)C(N)=O)cccc12 [Dansyl-PSR-amide] (Dansyl-Pro-Ser-Arg-NH2) ?
### Response −27

### Prompt Any idea what Relative Binding Index (RBI) was measured for CN(C)c1cccc2c(S(=O)(=O)N[C@@H](CO)C(=O)N[C@@H](Cc3c[nH]cn3)C(=O)N[C@@H](CCCNC(=N)N)C(N)=O)cccc12 [Dansyl-SHR-amide] (Dansyl-Ser-His-Arg-NH2) ?
### Response 11

### Prompt Any idea what Relative Binding Index (RBI) was measured for CN(C)c1cccc2c(S(=O)(=O)N[C@@H](Cc3cnc[nH]3)C(=O)N[C@@H](CCC(N)=O)C(=O)N[C@@H](CCCNC(=N)N)C(N)=O)cccc12 [Dansyl-HQR-amide] (Dansyl-His-Gln-Arg-NH2) ?
### Response 30

* * *

Entries annotated with measured Relative Binding Index (RBI)
test system: receptor labeled by the radioiodinated analogue of 1 (4, [125I]-YLFQPQRF-NH2); neuropeptide FF receptor; assay: Competitive radioligand binding against 4 ([125I]Y8F-amide); settings: mixture-based positional scanning; difference from averaged radioligand displacement of whole library (0); about 80 a.u. = 10-fold change in Ki
Peptide text beside a SMILES is read from it. * marks the point of attachment. Dansyl = CN(C)c1cccc2c(S(=O)(=O)*)cccc12
Give the quantity in a.u., number only.

Solved cases (3 shown):
{"COMPOUND": "CN(C)c1cccc2c(S(=O)(=O)N[C@@H](CO)C(=O)NCC(=O)N[C@@H](CCCNC(=N)N)C(N)=O)cccc12 [Dansyl-SGR-amide] (Dansyl-Ser-Gly-Arg-NH2)", "Relative Binding Index (RBI), a.u.": 22}
{"COMPOUND": "CC[C@H](C)[C@H](NC(=O)[C@H](CCSC)NS(=O)(=O)c1cccc2c(N(C)C)cccc12)C(=O)N[C@@H](CCCNC(=N)N)C(N)=O [Dansyl-MIR-amide] (Dansyl-Met-Ile-Arg-NH2)", "Relative Binding Index (RBI), a.u.": "−37"}
{"COMPOUND": "CN(C)c1cccc2c(S(=O)(=O)N[C@@H](CC(N)=O)C(=O)N[C@@H](CC(=O)O)C(=O)N[C@@H](CCCNC(=N)N)C(N)=O)cccc12 [Dansyl-NDR-amide] (Dansyl-Asn-Asp-Arg-NH2)", "Relative Binding Index (RBI), a.u.": "−5"}

### Prompt Any idea what Relative Binding Index (RBI) was measured for CC[C@H](C)[C@H](NS(=O)(=O)c1cccc2c(N(C)C)cccc12)C(=O)N[C@@H](Cc1c[nH]c2ccccc12)C(=O)N[C@@H](CCCNC(=N)N)C(N)=O [Dansyl-IWR-amide] (Dansyl-Ile-Trp-Arg-NH2) ?
### Response −2

### Prompt Any idea what Relative Binding Index (RBI) was measured for CC[C@H](C)[C@H](NS(=O)(=O)c1cccc2c(N(C)C)cccc12)C(=O)N[C@@H](CC(N)=O)C(=O)N[C@@H](CCCNC(=N)N)C(N)=O [Dansyl-INR-amide] (Dansyl-Ile-Asn-Arg-NH2) ?
### Response −10

* * *

tested on: receptor labeled by the radioiodinated analogue of 1 (4, [125I]-YLFQPQRF-NH2); neuropeptide FF receptor; assay: Competitive radioligand binding against 4 ([125I]Y8F-amide); conditions: mixture-based positional scanning; difference from averaged radioligand displacement of whole library (0); about 80 a.u. = 10-fold change in Ki
Peptide text beside a SMILES is read from it. * marks the point of attachment. Dansyl = CN(C)c1cccc2c(S(=O)(=O)*)cccc12
Respond with class 1 for Relative Binding Index (RBI) values of 8 a.u. and above, class 0 for values below.

### Prompt Decide: Relative Binding Index (RBI) of CN(C)c1cccc2c(S(=O)(=O)N[C@@H](CC(=O)O)C(=O)N[C@@H](CC(=O)O)C(=O)N[C@@H](CCCNC(=N)N)C(N)=O)cccc12 [Dansyl-DDR-amide] (Dansyl-Asp-Asp-Arg-NH2) >= 8 a.u.?
### Response class 0

### Prompt Decide: Relative Binding Index (RBI) of CSCC[C@H](NC(=O)[C@H](CC(C)C)NS(=O)(=O)c1cccc2c(N(C)C)cccc12)C(=O)N[C@@H](CCCNC(=N)N)C(N)=O [Dansyl-LMR-amide] (Dansyl-Leu-Met-Arg-NH2) >= 8 a.u.?
### Response class 0

### Prompt Decide: Relative Binding Index (RBI) of CSCC[C@H](NS(=O)(=O)c1cccc2c(N(C)C)cccc12)C(=O)N[C@@H](Cc1c[nH]c2ccccc12)C(=O)N[C@@H](CCCNC(=N)N)C(N)=O [Dansyl-MWR-amide] (Dansyl-Met-Trp-Arg-NH2) >= 8 a.u.?
### Response class 0

### Prompt Decide: Relative Binding Index (RBI) of CN(C)c1cccc2c(S(=O)(=O)N[C@@H](CO)C(=O)N3CCC[C@H]3C(=O)N[C@@H](CCCNC(=N)N)C(N)=O)cccc12 [Dansyl-SPR-amide] (Dansyl-Ser-Pro-Arg-NH2) >= 8 a.u.?
### Response class 1

* * *

Tested on: receptor labeled by the radioiodinated analogue of 1 (4, [125I]-YLFQPQRF-NH2); neuropeptide FF receptor
Test: Competitive radioligand binding against 4 ([125I]Y8F-amide)
Settings: mixture-based positional scanning; difference from averaged radioligand displacement of whole library (0); about 80 a.u. = 10-fold change in Ki
Excerpt: Additionally, three-dimensional (3-D) molecular models of the known smaller-size neuropeptide FF antagonists 3 and 3a were constructed and their low-energy conformations were obtained in the AMBER force-field [Weiner, et al., J. Comput. Chem. 1986, 7, […].] by molecular dynamics calculations involving simulated annealing. A semi-empirical quantum chemical method with the PM3 parameterization [Stewart, J. Comput. Chem. 1989, 10, 209-220.] was used for the final geometry optimization. […]
Peptide text beside a SMILES is read from it. * marks the point of attachment. Dansyl = CN(C)c1cccc2c(S(=O)(=O)*)cccc12
EXPERIMENTAL_ENDPOINT: Relative Binding Index (RBI)
Number plus unit, in that order.

{"COMPOUND": "CC(C)C[C@H](NC(=O)[C@H](Cc1cnc[nH]1)NS(=O)(=O)c1cccc2c(N(C)C)cccc12)C(=O)N[C@@H](CCCNC(=N)N)C(N)=O [Dansyl-HLR-amide] (Dansyl-His-Leu-Arg-NH2)", "Relative Binding Index (RBI)": "8 a.u."}
{"COMPOUND": "CSCC[C@H](NC(=O)[C@H](CO)NS(=O)(=O)c1cccc2c(N(C)C)cccc12)C(=O)N[C@@H](CCCNC(=N)N)C(N)=O [Dansyl-SMR-amide] (Dansyl-Ser-Met-Arg-NH2)", "Relative Binding Index (RBI)": "16 a.u."}
{"COMPOUND": "CC[C@H](C)[C@H](NS(=O)(=O)c1cccc2c(N(C)C)cccc12)C(=O)N[C@@H](Cc1ccc(O)cc1)C(=O)N[C@@H](CCCNC(=N)N)C(N)=O [Dansyl-IYR-amide] (Dansyl-Ile-Tyr-Arg-NH2)", "Relative Binding Index (RBI)": "−12 a.u."}

### Prompt Any idea what Relative Binding Index (RBI) was measured for CC(O)C(NC(=O)C(CCC(=O)O)NS(=O)(=O)c1cccc2c(N(C)C)cccc12)C(=O)NC(CCCNC(=N)N)C(N)=O (stereo not drawn) [Dansyl-ETR-amide] (Dansyl-Glu-Thr-Arg-NH2; configuration not given here) ?
### Response 22 a.u.

### Prompt Any idea what Relative Binding Index (RBI) was measured for CN(C)c1cccc2c(S(=O)(=O)N[C@@H](CCC(N)=O)C(=O)N[C@@H](CCC(=O)O)C(=O)N[C@@H](CCCNC(=N)N)C(N)=O)cccc12 [Dansyl-QER-amide] (Dansyl-Gln-Glu-Arg-NH2) ?
### Response 22 a.u.

### Prompt Any idea what Relative Binding Index (RBI) was measured for C[C@@H](O)[C@H](NC(=O)[C@H](CC(=O)O)NS(=O)(=O)c1cccc2c(N(C)C)cccc12)C(=O)N[C@@H](CCCNC(=N)N)C(N)=O [Dansyl-DTR-amide] (Dansyl-Asp-Thr-Arg-NH2) ?
### Response 0 a.u.

### Prompt Any idea what Relative Binding Index (RBI) was measured for C[C@@H](O)[C@H](NS(=O)(=O)c1cccc2c(N(C)C)cccc12)C(=O)N[C@@H](CC(=O)O)C(=O)N[C@@H](CCCNC(=N)N)C(N)=O [Dansyl-TDR-amide] (Dansyl-Thr-Asp-Arg-NH2) ?
### Response −27 a.u.
